# System: Fibroblast
# measurement-protocol: Incucyte cell viability with human fibroblast; further: unitless GR value; below 1 slowed growth and below 0 cell loss
# Assay type: toxicity, cell-based
# run-conditions: 24 h, 10 µM, compound concentration 10 uM, replicate number 1
Growth Rate vs 0.4: less than gives 1; not less than gives -1.

Reference set, count: 8
Criterion: Growth Rate strictly below 0.4. Is it met by Cc1cc(C(=O)N2CCN(C3CN(C(=O)c4ccc(-c5ccccc5)cc4)C3)CC2)no1 ? 1

Lab note: confirm whether the reported Growth Rate for this molecule is below 0.4, equality not counting. molecule: CC(C)(O)c1ccc(-c2nc3c(F)cc(F)cc3c(=O)[nH]2)cc1 1

Check if Growth Rate falls below 0.4 for CNC(=O)c1cc(Nc2ccnc(Nc3ccc(CCNC(=O)OC(C)(C)C)cc3)n2)[nH]n1 . -1

Just wondering, is Growth Rate of CCN(CCN(C)C)C(=O)CNCc1cc(C(N)=O)ccn1.Cl.O below 0.4? -1

# strict comparison: is reported Growth Rate < 0.4? input = CC(C)(C)OC(=O)Nc1ccc(CNc2nccc(Nc3cc(C(=O)OC(C)(C)C)[nH]n3)n2)cc1 -1

API: query returns whether the molecule falls strictly under 0.4 in Growth Rate. Query: CNC(=O)c1cnc(N2CCC[C@H](N)C2)nc1Nc1cc(C(C)C)nc(C(C)C)c1 -1

Growth Rate under 0.4? Item: COc1nc(Nc2cc(S(C)(=O)=O)ccc2N[C@@H](c2cccc3c2OC(F)(F)O3)c2ncccc2Cl)nc(N2CCNCC2)n1 1

Dear colleague, could you confirm whether Growth Rate of CC(C)C(=O)SCCCCCCC(=O)Nc1nc(-c2ccccc2)cs1 falls below 0.4? Thanks. -1

Read the next record carefully.
In plain terms, does Cc1ccc(NC2=CC(=O)c3sc(C)nc3C2=O)cc1 come in under 0.4 for Growth Rate? 1

====

Each record here notes measured Growth Rate.
# Test system: HEK-293T
# measurement-protocol: Incucyte cell viability with HEK293T; further: unitless GR value; below 1 slowed growth and below 0 cell loss
# Assay type: toxicity, cell-based
# run-conditions: human, 24 h, 10 µM, compound concentration 10 uM, replicate number 2
// no unit, no text: just the number

Consider the molecule CC(=O)N[C@@H](Cc1ccc(O)cc1)C(=O)N[C@H](C(=O)N[C@@H](C)C(=O)N[C@@H](CC(=O)O)C(=O)CCl)C(C)C and give its measured Growth Rate. 0.89

====

# Test system: HEK-293T
# measurement-protocol: Incucyte cell viability with HEK293T; further: unitless GR value; below 1 slowed growth and below 0 cell loss
# Type: toxicity, cell-based
# run-conditions: human, 24 h, 10 µM, compound concentration 10 uM, replicate number 1
Peptide text beside a SMILES is read from it. * marks the point of attachment. Cbz = O=C(OCc1ccccc1)*; CH2F = FC*
In this section, each of the molecules is paired with its reported Growth Rate.
The response must contain the number and no unit.

Record excerpt, results attached:
Record CC(=O)O[C@]1(C(C)=O)CC[C@H]2[C@@H]3C=C(Cl)C4=CC(=O)[C@@H]5C[C@@H]5[C@]4(C)[C@H]3CC[C@@]21C [CYPROTERONE ACETATE] : what is its Growth Rate with HEK-293T? 0.61

Entry CC(=O)N1CCN([C@H]2CCC[C@@H](NC(=O)c3cc4c(F)ccc(C)c4[nH]3)C2)CC1 , system HEK-293T: what Growth Rate was measured? 0.77

What value of Growth Rate on HEK-293T does O=C(NO)c1cccc(C(=O)NCCc2ccccc2)c1 have? 0.83

Request - read-out Growth Rate | tested on HEK-293T | molecule COC(=O)CC[C@H](NC(=O)[C@H](C)NC(=O)OCc1ccccc1)C(=O)N[C@H](C(=O)N[C@@H](CC(=O)OC)C(=O)CF)C(C)C (Cbz-AE(OMe)VD(OMe)-CH2F) 0.7

Return Growth Rate measured with HEK-293T given this molecule: Cn1cc(NC(=O)c2cc(F)cc(F)c2)c(C(=O)NC2CCNCC2)n1 0.67

---
I'm curious: which Growth Rate was measured for O=C(CCCCCCNC(=O)c1cnc(N(c2ccccc2)c2ccccc2)nc1)NO tested on HEK-293T? 0.73

Item COC[C@@H]1CCCN1S(=O)(=O)c1ccc2c(c1)C(=O)C(=O)N2 with HEK-293T - Growth Rate? 0.88

Which Growth Rate is reported with HEK-293T for this entry: O=C(NCC1CCOCC1)c1n[nH]cc1NC(=O)c1c(F)cccc1F ? 0.35
